substrate: NC(=O)C1=CN([C@@H]2O[C@H](COP(=O)(O)OP(=O)(O)OC[C@H]3O[C@@H](n4cnc5c(N)ncnc54)[C@H](OP(=O)(O)O)[C@@H]3O)[C@@H](O)[C@H]2O)C=CC1; assay: purified protein; assay type: biochemical, Bacillus subtilis; conditions: 1 mM L-P5C, 20 mM Tris-HCl pH 7.0, 30°C, kcat per monomer
Readings of kcat/Km for the listed proteins
Field: numeric (M⁻¹ s⁻¹). Do not append units.

PROTEIN	RESULT_UNITS	RESULT_NUMBER
ProH (Bacillus subtilis subsp. subtilis str. 168) (protein, full-length; pMCSG68, N-terminal His6-TEV tag removed; E. coli BL21 Gold; homodimer by SAXS) MRTKKRTKEMLPIFDQKKVAFIGAGSMAEGMISGIVRANKIPKQNICVTNRSNTERLTELELQYGIKGALPNQLCIEDMDVLILAMKPKDAENALSSLKSRIQPHQLILSVLAGITTSFIEQSLLNEQPVVRVMPNTSSMIGASATAIALGKYVSEDLKKLAEALLGCMGEVYTIQENQMDIFTGIAGSGPAYFYYLMEFIEKTGEEAGLDKQLSRSIGAQTLLGAAKMLMETGEHPEILRDNITSPNGTTAAGLQA	M⁻¹ s⁻¹	6.3e+07
ProG, putative δ1-pyrroline-5-carboxylate (P5C) reductase from Bacillus subtilis (enzyme, Bacillus subtilis strain 168, UniProt Q00777 1-272, looked up, ProG, putative P5C reductase, Bacillus subtilis strain 168; calculated mass 30.20 kDa; Cloned in pMCSG68 (His6 tag and TEV site at the N-terminus); also called P5C reductase ProG; source: E. coli BL21 Gold, purified (Ni-NTA, TEV cleavage, second Ni-NTA, SEC on Superdex 200); not shown: His6, N-terminal, cleaved) MEQIGLIGYGSMADMIARQLLKHEQIKENELFIETRTKGERLRALMSDYPNVSADPLENWANTCQLILICVPPLHVIETMRRLYPYVNRNTHIVSIAAGVPLRLLEAETEAGISRVIPAITSEAEAGISLVVHSEALAAEKKERLNELLSVFSRVREIKESNLDVASNLTSSAPGFIAAIFEELALSAVRNSSLSKEEAFDFLIHSLYGTGKMLIEKNMSFEETLERVATKGGITGEGAEVIHASVPDVFDEVFERTLRKYELLTEQVGKQT	M⁻¹ s⁻¹	84000

Consider the additional protein presented here.
Query kcat/Km for ProI, putative δ1-pyrroline-5-carboxylate (P5C) reductase from Bacillus subtilis (enzyme, Bacillus subtilis strain 168, UniProt P54552 1-278, looked up, ProI, putative P5C reductase, Bacillus subtilis strain 168; calculated mass 30.90 kDa; Cloned in pMCSG68 (His6 tag and TEV site at the N-terminus); also called P5C reductase ProI; source: E. coli BL21 Gold, purified (Ni-NTA, TEV cleavage, second Ni-NTA, SEC on Superdex 200); not shown: His6, N-terminal, cleaved) MKKIGFVGAGSMAEAMINGILQSGITKPEHIYITNRSNDERLIELKETYSVRPCRDKNEFFTHTDIIILAFKPKDAAESIDSIRPYIKDQLVISVLAGLTIETIQHYFGRKLAVIRVMPNTSAAIRKSATGFSVSTEASKNDIIAAKALLETIGDATLVEERHLDAVTAIAGSGPAYVYRYIEAMEKAAQKVGLDKETAKALILQTMAGATDMLLQSGKQPEKLRKEITSPGGTTEAGLRALQDSRFEEAIIHCIEETAKRSAEIKEQFAGAALERHS
2600
